I'd be grateful if you could share measured pEC50 for these entries.
- Target Or Test System: Mouse LRP-8 expressed on HEK293 cells (mouse) (UniProt Q924X6)
- Measurement Protocol: mLRP8 cell binding
Numbers only, as −log10 of the molar value.

humanized ML199-11H1.5B2VH.1/VL.1 (antibody, V domains shown) VH: EVQLVESGGGLVKPGGSLRLSCAASRFTFSNYGMSWVRQAPGKGLEWVSTISSGGRYTYYPDSVKGRFTISRDNAKNSLYLQMNSLRAEDTAVYYCARDYLYAMDYWGQGTTVTVSS VL: DIVMTQSPLSLPVTPGEPASISCRSSQSLVYSNGNTYLHWYLQKPGQSPQLLIYKVSNRFSGVPDRFSGSGSGTDFTLKISRVEAEDVGVYYCSQSTHVPLTFGQGTKLEIK; 7.65
humanized ML199-11H1.5B2VH.1a/VL.1a (antibody, V domains shown) VH: EVQLVESGGGLVKPGGSLRLSCAASRFTFSNYGMSWVRQAPGKGLEWVATISSGGRYTYYPDSVKGRFTISRDNAKNSLYLQMNSLRAEDTAVYYCARDYLYAMDYWGQGTTVTVSS VL: DVVMTQSPLSLPVTPGEPASISCRSSQSLVYSNGNTYLHWYLQKPGQSPQVLMYKVSNRFSGVPDRFSGSGSGTDFTLKISRVEAEDVGVYFCSQSTHVPLTFGQGTKLEIK; 7.38

From here, focus on the item given below.
# binder humanized ML199-11H1.5B2VH.1a/VL.1b (antibody, V domains shown) VH: EVQLVESGGGLVKPGGSLRLSCAASRFTFSNYGMSWVRQAPGKGLEWVATISSGGRYTYYPDSVKGRFTISRDNAKNSLYLQMNSLRAEDTAVYYCARDYLYAMDYWGQGTTVTVSS VL: DVVMTQSPLSLPVTPGEPASISCRSSQSLVYSNGNTYLHWYLQKPGQSPQVLIYKVSNRFSGVPDRFSGSGSGTDFTLKISRVEAEDVGVYYCSQSTHVPLTFGQGTKLEIK ; its pEC50 = 7.71
